From: patent US10640511B2

# method: Compound toxicity, ATPLite total ATP levels
# Type: cell-based
# condition context: human, HepG2 cells, 50% reduction of total ATP levels (ATPLite) three days after compound addition, class symbols
reported property: CC50 at 3 days

molecule	CC50 at 3 days
Cn1ccc(C2=C3CC(NC(=O)OC(C)(C)C)CN3C(c3nccs3)=N[C@H]2c2ccc(F)cc2Cl)n1 (some centres unmarked)	< 10 µM
[2H]C([2H])([2H])n1ccc(C2=C3C[C@H](NS(=O)(=O)C4CC4)CN3C(c3nccs3)=N[C@H]2c2ccc(F)cc2Cl)n1	> 25 µM
Cn1ccc(C2=C3CC(NS(=O)(=O)C4CC4)CN3C(c3nccs3)=N[C@H]2c2ccc(F)cc2Cl)n1 (some centres unmarked)	> 25 µM
Cn1ccc(C2=C3C[C@H](NS(N)(=O)=O)CN3C(c3nccs3)=N[C@H]2c2ccc(F)cc2Cl)n1	> 25 µM

Now look at this entry.
Ask | I have this molecule here, `Cc1cnc(C2=C3C[C@H](NS(=O)(=O)C4CC4)CN3C(c3nccs3)=N[C@H]2c2ccc(F)cc2Cl)o1` , and I need its recorded CC50 at 3 days.
Reply | > 25 µM

---

# method: Compound toxicity, ATPLite total ATP levels
# Format: cell-based
# condition context: human, HepG2 cells, 50% reduction of total ATP levels (ATPLite) three days after compound addition, numeric bound
# Procedure: Compound toxicity is evaluated by seeding cells at 15,000 cells/well and treating with compound as described above.
reported property: CC50 at 3 days

Ask | I have this molecule here, CCn1ccc(C2=C3C[C@H](NS(=O)(=O)C4CC4)CN3C(c3nccs3)=N[C@H]2c2ccc(F)cc2Cl)n1 [Example 22] , and I need its recorded CC50 at 3 days.
Reply | > 6 µM
